assay: Pharmacokinetic study: volunteers orally received 60 mL of guaco syrup spiked with 1500 mg of COU, plasma by HPLC-MS/MS; type: in vivo, human; details: both sexes; human plasma, oral, 60 mL guaco syrup spiked with 1500 mg coumarin, n = 5, mean ± S.D.; read-out: Vd/f (apparent volume of distribution)
QUANTITY_MEASURED: Vd/F (L)
Report as a plain number; the unit L is understood.

Exercise: Dear colleague, I am looking for the recorded Vd/F of the following compound: O=c1ccc2ccccc2o1 [COU, 1,2 benzopyrone]
Solution: 6730

###

Assay: Stability in human plasma: short-term, freeze-thaw and long-term
Format: in vitro ADME
Settings: Long-term: plasma at -40°C, 60 days; low level (50.0, 12.5, 25.0, 10.0 ng/mL); n = 8, ± SD
Description: The samples were vortexed for 2 min and then were kept at room temperature for 8 h. Afterward, the samples were spiked with 50 μL of IS solution and were vortexed (2 min) and submitted to the extraction procedures. The short-term stability was evaluated by comparing the mean recovery of the analytes and the IS obtained from stored samples with the mean values obtained with freshly prepared samples, at same concentration levels. […]
QUANTITY_MEASURED: Mean recovery (ng/mL)
Could you give me the number in ng/mL? Just the number is fine.

In the examples that follow, each entry is paired with its recorded Mean recovery.
O=c1ccc2ccccc2o1 [COU, 1,2 benzopyrone] :: 45.1
O=C(O)/C=C/c1ccccc1O [OCA, o-coumaric acid] :: 22.5
C=C1C[C@@]23CC[C@H]4[C@@](C)(CCC[C@@]4(C)C(=O)O)[C@@H]2CC[C@@H]1C3 [KAU, kaurenoic acid] :: 8.8

Now consider a different compound.
Exercise: Item O=c1ccc2ccc(O)cc2o1 [7-HCOU, 7-hydroxycoumarin] has what recorded Mean recovery?
Solution: 11.7
